# pKi values compiled below
molecular target: full-length recombinant rat vitamin D receptor (Rattus norvegicus); construct: Full-length recombinant rat receptor was expressed in E. coli BL21 (DE3) Codon Plus RIL cells; His tag (histidine tag) (C); made in house; host or cells: E. coli BL21 (DE3) Codon Plus RIL; experiment: Vitamin D receptor competitive binding with [3H]-1,25(OH)2D3; conditions: full-length recombinant rat VDR; 1 nM radioligand; read-out: Ki, competition with [3H]-1,25(OH)2D3 for binding to the vitamin D receptor
Sequence (P13053 whole entry): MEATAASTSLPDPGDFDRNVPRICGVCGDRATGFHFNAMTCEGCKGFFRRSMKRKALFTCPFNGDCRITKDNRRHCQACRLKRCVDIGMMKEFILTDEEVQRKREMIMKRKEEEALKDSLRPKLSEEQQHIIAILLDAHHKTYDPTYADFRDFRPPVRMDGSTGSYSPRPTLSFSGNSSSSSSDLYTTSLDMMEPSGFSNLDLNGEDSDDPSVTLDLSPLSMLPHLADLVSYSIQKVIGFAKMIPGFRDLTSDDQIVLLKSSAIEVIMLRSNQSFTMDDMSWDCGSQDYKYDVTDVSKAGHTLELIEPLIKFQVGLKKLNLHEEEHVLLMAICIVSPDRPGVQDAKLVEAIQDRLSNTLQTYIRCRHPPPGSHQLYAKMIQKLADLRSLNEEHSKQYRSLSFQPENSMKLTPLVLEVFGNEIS
The quantity pKi is defined as the negative base-10 logarithm of the molar concentration.

C=C1CC(=C)[C@H](O)C/C1=C/C=C1\CCC[C@]2(C)[C@@H]([C@@H](C)CCCC(C)(C)O)CC[C@@H]12 [1D-QMS, (20S)-25-hydroxy-2-methylene-vitamin D3] | 9.70

Switching to the query record.
I would be grateful if you could share the reported pKi for C=C1CC(=C)[C@H](O)C/C1=C/C=C1\CCC[C@]2(C)[C@@H]([C@H](C)CCCC(C)(C)O)CC[C@@H]12 [1D-QM, (20R)-25-hydroxy-2-methylene-vitamin D3] . 9.05
